The reported measurements were obtained from patent US20200317768A1.

Target: T1, Human latent myostatin (human, UniProt O14793 25-266; O14793 267-375)
T1 construct: Biotinylated in the ELISAs; also called human myostatin latent form
T1 sequence 1: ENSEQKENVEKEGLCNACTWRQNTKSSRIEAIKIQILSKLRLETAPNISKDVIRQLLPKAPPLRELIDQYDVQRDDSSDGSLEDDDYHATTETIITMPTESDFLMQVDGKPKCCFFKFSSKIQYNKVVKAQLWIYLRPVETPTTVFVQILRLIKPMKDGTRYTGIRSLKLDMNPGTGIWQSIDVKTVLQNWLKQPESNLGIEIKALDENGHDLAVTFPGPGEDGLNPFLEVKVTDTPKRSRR
T1 sequence 2: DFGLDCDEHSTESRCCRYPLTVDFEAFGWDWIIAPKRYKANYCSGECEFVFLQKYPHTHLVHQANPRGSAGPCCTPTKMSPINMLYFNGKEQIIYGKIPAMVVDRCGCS
Assay: SPR (BIACORE T200), 37 C, pH7.4, avidity condition (capture 185 RU), 1:1 fit; pH 7.4
MEASUREMENT_NAME: koff (s⁻¹)
Please reply with the bare figure in s⁻¹ and do not write the unit itself.

Task item: # query: koff of entry MS_M103205H707-SG1/M103202L802-SK1 (antibody, human IgG1, kappa, V domains shown, also called MS1032LO04-SG1; MSLO-04) VH: QVTLKESGPVLVKPTETLTLTCTVSGIDLSHYDISWVRQAPGKGLEWVGIISYAGSTYYASWAKGRLTISKDTSKNQVVLTMTNMDPVDTATYYCARGVPAYSHGGDLWGQGTLVTVSS VL: DIVMTQSPATLSLSPGERATLSCTSSQSVYHDNWLSWFQQKPGQPPKLLIYWASTLAYGVPSRFSGSGSGTDFTLTISSLQPEDAATYYCAGGYGGGLYAFGQGTKVEIKR
Reply: 0.000217

Task item: # query: koff of entry MS_M103205H714-SG1/M103202L861-SK1 (antibody, human IgG1, kappa, V domains shown, also called MS1032LO01-SG1; MSLO-01) VH: QVTLKESGPVLVKPTETLTLTCTVSGIDLSHTDISWVRQAPGKGLEWVGIISYAGSTYYASWAKGRLTISKDTSKNQVVLTMTNMDPVDTATYYCARGVPAYSHGGDLWGQGTLVTVSS VL: DIVMTQSPATLSLSPGERATLSCTSSQSVYHNNWLSWFQQKPGQPPKLLIYWASTLAYGVPSRFSGSGSGTDFTLTISSLQPEDAATYYCAGGYGGGRYAFGQGTKVEIKR
Reply: 0.000216

Task item: # query: koff of entry MS_M103205H000-SG1/M103202LO00-SK1 (antibody, human IgG1, kappa, V domains shown, Humanized MST1032, not pH-dependent; also called MS1032LO00-SG1; Ab001) VH: QVTLKESGPVLVKPTETLTLTCTVSGIDLSSYDISWVRQAPGKGLEWVGIISYAGSTYYASWAKGRLTISKDTSKNQVVLTMTNMDPVDTATYYCARGVPAYSTGGDLWGQGTLVTVSS VL: DIVMTQSPATLSLSPGERATLSCQSSQSVYDNNWLSWFQQKPGQPPKLLIYWASTLASGVPSRFSGSGSGTDFTLTISSLQPEDAATYYCAGGYGGGLYAFGQGTKVEIKR
Reply: 9.52e-05
